Ki values for the molecules below.
assay.system: UniProt:Q07817
Sequence (Q07817 other isoform, or with tags, fused parts or gaps): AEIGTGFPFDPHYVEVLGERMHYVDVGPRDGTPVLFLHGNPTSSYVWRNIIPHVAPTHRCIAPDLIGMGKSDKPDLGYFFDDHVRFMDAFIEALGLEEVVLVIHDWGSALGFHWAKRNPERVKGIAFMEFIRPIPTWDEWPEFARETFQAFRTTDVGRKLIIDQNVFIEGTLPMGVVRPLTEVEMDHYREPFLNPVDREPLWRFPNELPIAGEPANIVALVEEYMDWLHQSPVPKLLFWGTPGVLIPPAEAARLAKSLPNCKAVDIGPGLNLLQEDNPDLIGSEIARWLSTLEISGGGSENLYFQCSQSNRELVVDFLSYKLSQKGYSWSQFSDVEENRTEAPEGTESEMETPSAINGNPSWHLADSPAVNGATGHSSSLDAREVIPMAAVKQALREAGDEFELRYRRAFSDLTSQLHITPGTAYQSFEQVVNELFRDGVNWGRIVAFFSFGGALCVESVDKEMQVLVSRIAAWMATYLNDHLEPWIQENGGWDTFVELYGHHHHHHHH
Write the value in nM as a bare number.

Consider the following illustrative entries.
Cc1cc(OCCN2CCOCC2)c(F)cc1CC(=O)N1CCc2cc(-c3cc(C(=O)N(c4ccccc4)c4cnn(C)c4)c(C)n3C)c(C(=O)N3Cc4ccccc4C[C@H]3C)cc2C1; 23.6
CCOC[C@@H]1Cc2ccccc2CN1C(=O)c1cc2c(cc1-c1cc(C(=O)N(c3ccc(O)cc3)c3cc(C#N)n(C)c3C)c(C)n1C)CCN(C(=O)Cc1ccc(OCCN3CCOCC3)cc1F)C2; 1.2

// below: Ki requested for another molecule
GET Ki | system: UniProt:Q07817 | item: `Cc1c(N(C(=O)c2cc(-c3cc4c(cc3C(=O)N3Cc5ccccc5C[C@H]3C)CN(C(=O)Cc3ccc(OCCN(C)C5COC5)cc3)CC4)n(C)c2C)c2ccc(O)cc2)cc(C#N)n1C`
1

----------
Test system: platelets
experimental.protocol: Platelet depletion in SCID mice
Assay type: in vivo
conditions.used: 25 mg/kg IV bolus, 6 h after dosing, vs control group
Recorded Platelet loss (%) 6 h by entry
Value expressed in %; do not type the unit.

See these solved cases before continuing.
Cc1c(N(C(=O)c2cc(-c3cc4c(cc3C(=O)N3Cc5ccccc5C[C@H]3C)CN(C(=O)Cc3ccc(C5CCN(CCF)CC5)c(F)c3)CC4)n(C)c2C)c2ccc(O)cc2)cc(C#N)n1C; 23.2
Cc1c(N(C(=O)c2cc(-c3cc4c(cc3C(=O)N3Cc5ccccc5C[C@H]3C)CN(S(=O)(=O)Cc3ccccc3)CC4)n(C)c2C)c2ccc(O)cc2)cc(C#N)n1C; 16.1
Cc1c(N(C(=O)c2cc(-c3cc4c(cc3C(=O)N3Cc5ccccc5C[C@H]3C)CN(C(=O)Cc3ccc(OCCN5CCSCC5)cc3)CC4)n(C)c2C)c2ccc(O)cc2)cc(C#N)n1C; 26.9
Cc1c(N(C(=O)c2cc(-c3cc4c(cc3C(=O)N3Cc5ccccc5C[C@H]3C)CN(C(=O)Cc3ccc(N5CCN6CCOC[C@@H]6C5)cc3F)CC4)n(C)c2C)c2ccc(O)cc2)cc(C#N)n1C; 22.0

Please look at this compound and report its Platelet loss (%) 6 h: `Cc1c(N(C(=O)c2cc(-c3cc4c(cc3C(=O)N3Cc5ccccc5C[C@H]3C)CN(C(=O)Cc3ccc(OCCN5C[C@@H](C)O[C@@H](C)C5)cc3)CC4)n(C)c2C)c2ccc(O)cc2)cc(C#N)n1C`
26.9

Provide Platelet loss (%) 6 h value for the following compound: `Cc1c(N(C(=O)c2cc(-c3cc4c(cc3C(=O)N3Cc5ccccc5C[C@H]3CN3CCOCC3)CN(C(=O)Cc3ccc(OCCC5CCOCC5)cc3F)CC4)n(C)c2C)c2ccc(O)cc2)cc(C#N)n1C`
28.6

# return recorded Platelet loss (%) 6 h for input `Cc1c(N(C(=O)c2cc(-c3cc4c(cc3C(=O)N3Cc5ccccc5C[C@H]3CN3CCCCC3)CN(C(=O)Cc3ccc(OCCN5CCOCC5)cc3F)CC4)n(C)c2C)c2ccc(O)cc2)cc(C#N)n1C`
25.3

Please give measured Platelet loss (%) 6 h of the following entry: `COc1ccc(CC(=O)N2CCc3cc(-c4cc(C(=O)N(c5ccc(O)cc5)c5cc(C#N)n(C)c5C)c(C)n4C)c(C(=O)N4Cc5ccccc5C[C@H]4CN4CCCCC4)cc3C2)c(F)c1`
33.5

For `Cc1c(N(C(=O)c2cc(-c3cc4c(cc3C(=O)N3Cc5ccccc5C[C@H]3C)CN(C(=O)Cc3ccc(OCCN5CCO[C@H](C)C5)cc3)CC4)n(C)c2C)c2ccc(O)cc2)cc(C#N)n1C` , write its Platelet loss (%) 6 h.
43.5

Look up and report measured Platelet loss (%) 6 h for this entry: `Cc1c(N(C(=O)c2cc(-c3cc4c(cc3C(=O)N3Cc5ccccc5C[C@H]3C)CN(C(=O)Cc3ccc(OCCN5CCOCC5)cc3)CC4)n(C)c2C)c2ccc(O)cc2)cc(C#N)n1C`
58.4

Give Platelet loss (%) 6 h for `Cc1c(N(C(=O)c2cc(-c3cc4c(cc3C(=O)N3Cc5ccccc5C[C@H]3C)CN(C(=O)Cc3ccc(N5CCN(CC(F)(F)F)CC5)cc3)CC4)n(C)c2C)c2ccc(O)cc2)cc(C#N)n1C`
19.6

These entries and their values trace back to patent US20250179047A1.
